Below is a list of entries, each paired with its recorded IC50 value.
Target: recombinant human CRTH2 receptor (Homo sapiens, UniProt Q9Y5Y4)
Construct: expressed in transfected cells
Sequence (Q9Y5Y4 1-395): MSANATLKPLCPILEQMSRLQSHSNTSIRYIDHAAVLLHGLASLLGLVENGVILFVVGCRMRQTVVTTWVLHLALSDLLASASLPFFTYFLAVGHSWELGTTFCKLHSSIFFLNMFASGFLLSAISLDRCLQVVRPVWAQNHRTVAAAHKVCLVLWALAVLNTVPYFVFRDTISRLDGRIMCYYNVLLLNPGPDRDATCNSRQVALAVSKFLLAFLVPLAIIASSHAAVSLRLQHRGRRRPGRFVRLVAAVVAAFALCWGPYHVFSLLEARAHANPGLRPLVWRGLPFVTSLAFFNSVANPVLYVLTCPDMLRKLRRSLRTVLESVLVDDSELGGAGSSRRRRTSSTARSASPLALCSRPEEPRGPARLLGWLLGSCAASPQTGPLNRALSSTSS
Test: GTPγS binding assay
Type: biochemical
Conditions: +HSA; read-out: hDP2 GTPγS μM (+HSA)

• CCNC(=O)c1ccc(Oc2cc(CC(=O)O)ccc2OC)c(CN2C(=O)O[C@@H](c3ccccc3)[C@H]2C)c1 = 0.3 to 1 µM

Reported IC50, compound Cn1cc(-c2ccc(Oc3cccc(CC(=O)O)c3)c(CN3CCOC3=O)c2)cn1 : ____
0.3 to 1 µM

Reported IC50, compound COc1ccc(CC(=O)O)cc1Oc1ccc(C(F)(F)F)cc1CN1C(=O)O[C@@H](c2ccccc2)[C@H]1C : ____
0.3 to 1 µM

Reported IC50, compound O=C(O)Cc1cccc(Oc2ccc(Br)cc2CN2CC(c3ccc(Cl)cc3)CC2=O)c1 (stereo not shown) : ____
> 1 µM

Reported IC50, compound C[C@H]1[C@@H](c2ccccc2)OC(=O)N1Cc1cc(Br)ccc1Oc1ccc(C(F)(F)F)c(CC(=O)O)c1 : ____
> 1 µM

Reported IC50, compound C[C@@H]1[C@H](c2ccc(Cl)cc2)OC(=O)N1Cc1cc(Br)ccc1Oc1cccc(CC(=O)O)c1 : ____
0.3 to 1 µM

Reported IC50, compound C[C@@H]1[C@H](c2ccccc2)OC(=O)N1Cc1cc(Br)ccc1Oc1ccc(C(F)(F)F)c(CC(=O)O)c1 : ____
> 1 µM

====

Molecular target: human DP2 receptor (Homo sapiens)
Sequence (Q9Y5Y4 1-395): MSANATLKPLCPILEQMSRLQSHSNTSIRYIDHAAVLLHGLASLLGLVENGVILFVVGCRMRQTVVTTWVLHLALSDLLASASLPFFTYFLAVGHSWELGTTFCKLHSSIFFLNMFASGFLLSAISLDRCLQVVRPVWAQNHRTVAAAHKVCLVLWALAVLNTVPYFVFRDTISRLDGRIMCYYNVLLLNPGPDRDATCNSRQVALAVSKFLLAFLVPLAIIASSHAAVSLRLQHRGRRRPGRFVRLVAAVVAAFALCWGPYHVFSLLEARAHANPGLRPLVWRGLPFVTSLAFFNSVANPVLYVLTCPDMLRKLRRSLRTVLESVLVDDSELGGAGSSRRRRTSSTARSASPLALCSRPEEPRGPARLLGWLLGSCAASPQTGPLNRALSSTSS
Below is a list of entries, each paired with its recorded IC50 value.

These solved cases illustrate the format of a correct answer.
• O=C(O)Cc1cccc(Oc2ccc(Br)cc2CN2C[C@H](c3ccccc3)OC2=O)c1 [Compound 1-48] = < 300 nM
• O=C(O)Cc1cccc(Oc2ccc(-c3cccnc3)cc2CN2CCOC2=O)c1 [Compound 1-8] = < 300 nM
• COc1ccc(CC(=O)O)cc1Oc1ccc(Cl)cc1CN1CCOC1=O [Compound 1-86] = < 300 nM
• C[C@@H]1[C@H](c2cc(C(F)(F)F)cc(C(F)(F)F)c2)OC(=O)N1Cc1cc(Br)ccc1Oc1cccc(CC(=O)O)c1 [Compound 1-52] = < 300 nM
• C[C@H]1[C@@H](c2ccccc2)OC(=O)N1Cc1cc(-c2nccs2)ccc1Oc1cccc(CC(=O)O)c1 [Compound 1-74] = < 300 nM
• COCC(=O)Nc1ccc(Oc2cc(CC(=O)O)ccc2OC)c(CN2CCOC2=O)c1 [Compound 1-107] = 300 to 1000 nM

Reported IC50, molecule C[C@@H]1[C@H](c2ccccc2)OC(=O)N1Cc1cc(Br)ccc1Oc1ccc(Cl)c(CC(=O)O)c1 [Compound 1-53] : ____
< 300 nM

Reported IC50, molecule Cc1nc(C)c(-c2ccc(Oc3cccc(CC(=O)O)c3)c(CN3C(=O)O[C@H](c4ccccc4)[C@@H]3C)c2)s1 [Compound 1-75] : ____
< 300 nM

Reported IC50, molecule COc1ccc(-c2ccc(Oc3cc(CC(=O)O)ccc3OC)c(CN3C(=O)O[C@H](c4ccccc4)[C@@H]3C)c2)cc1 [Compound 1-39] : ____
< 300 nM

Reported IC50, molecule COc1ccc(CC(=O)O)cc1Oc1ccc(Br)cc1CN1CCN(C)C1=O [Compound 3-4] : ____
> 1000 nM

Reported IC50, molecule COc1ccc(CC(=O)O)cc1Oc1ccc(-c2ccc(S(C)(=O)=O)cc2)cc1CN1CCOC1=O [Compound 1-92] : ____
< 300 nM
